Parameter pIC50, tested on human Cereblon WT GST-tagged protein (Homo sapiens), listed per item.
Sequence (Q96SW2 whole entry): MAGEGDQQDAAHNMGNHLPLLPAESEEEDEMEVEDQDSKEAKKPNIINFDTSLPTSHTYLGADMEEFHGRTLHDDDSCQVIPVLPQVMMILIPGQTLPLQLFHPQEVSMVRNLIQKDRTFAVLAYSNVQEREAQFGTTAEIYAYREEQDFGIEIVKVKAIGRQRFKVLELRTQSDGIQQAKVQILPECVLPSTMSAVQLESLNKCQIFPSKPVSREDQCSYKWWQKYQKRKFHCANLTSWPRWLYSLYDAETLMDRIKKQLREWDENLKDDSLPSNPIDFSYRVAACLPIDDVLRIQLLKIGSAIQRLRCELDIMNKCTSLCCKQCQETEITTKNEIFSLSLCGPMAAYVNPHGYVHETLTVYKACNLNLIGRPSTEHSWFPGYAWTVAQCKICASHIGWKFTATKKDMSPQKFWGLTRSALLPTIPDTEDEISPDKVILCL
pIC50: −log10 of the molar value.

Recorded results for 3 compounds are shown here.
O=C1CCC(N2Cc3cc(OC4CN(CC5=C(c6ccc(F)cc6)CCCC5)C4)ccc3C2=O)C(=O)N1 (stereo not drawn) : 6.00 to 6.30
O=C1CCC(N2Cc3cc(OC4CN(CC5=C(c6ccc(Cl)cc6)CCOC5)C4)ccc3C2=O)C(=O)N1 (stereo not drawn) : > 6.30
O=C1CCC(N2Cc3cc(OC4CCCN(C(c5ccccc5)c5ccccc5)CC4)ccc3C2=O)C(=O)N1 (stereo not drawn) : 6.00 to 6.30

// recorded pIC50 for O=C1CCC(N2Cc3cc(OC4CN(C(c5ccccn5)c5ccccn5)C4)ccc3C2=O)C(=O)N1 (stereo not drawn) : > 6.30

// recorded pIC50 for O=C1CCC(N2Cc3cc(OC4CN(C(c5ccccc5)c5ccccn5)C4)ccc3C2=O)C(=O)N1 (stereo not drawn) : > 6.30

// recorded pIC50 for O=C1CCC(N2Cc3cc(OC4CN(CC5=C(c6ccc(Cl)cc6)CCC(F)(F)C5)C4)ccc3C2=O)C(=O)N1 (stereo not drawn) : 6.00 to 6.30

---

system: MV-4-11; experiment: Half inhibitory concentration (IC50) against tumor cells, Cell Counting Kit-8; type: cell-based; conditions: Homo sapiens, MV4-11, CCK-8, 96 h treatment, read-out: inhibitory activity (IC50, nM) against tumor cells proliferation
assay metric: IC50

Recorded results for 3 compounds are shown here.
O=C1CCC(N2Cc3cc(SC4CCN(C(c5ccccc5)c5ccccc5)CC4(F)F)ccc3C2=O)C(=O)N1 (stereo not shown) : 10 to 50 nM
O=C1CCC(N2Cc3cc(SC4CCCN(C(c5ccccc5)c5ccccc5)CC4)ccc3C2=O)C(=O)N1 (stereo not shown) : 500 to 1000 nM
O=C1CCC(N2Cc3cc(SC4CCN(C(=O)c5ccccc5-c5ccc(Cl)cc5)CC4(F)F)ccc3C2=O)C(=O)N1 (stereo not shown) : 1 to 10 nM

API: the following record is the query input.
// recorded IC50 for O=C1CCC(N2Cc3cc(SC4CCN(Cc5ccccc5-c5ccc(Cl)cc5)CC4(F)F)ccc3C2=O)C(=O)N1 (stereo not shown) : 100 to 500 nM

---

Parameter IC50, tested on human Cereblon WT GST-tagged protein (Homo sapiens), listed per item.

O=C1CCC(N2Cc3cc(OC4CN(C(c5ccc(Cl)cc5)c5ccc(Cl)cc5)C4)ccc3C2=O)C(=O)N1 (stereo not shown) : 1 to 1.9 µM
CC1(C)CCC(C(=O)N2CCC3(CC2)CC(Oc2ccc4c(c2)CN(C2CCC(=O)NC2=O)C4=O)C3)=C(c2ccc(Cl)cc2)C1 (stereo not shown) : 0.5 to 1 µM
O=C1CCC(N2Cc3ccc(SC4CNC4)cc3C2=O)C(=O)N1 (stereo not shown) : 1 to 1.9 µM

Item O=C1CCC(N2Cc3cc(OC4CC5CN(C(c6ccccc6)c6ccccc6)CC5C4)ccc3C2=O)C(=O)N1 (stereo not shown) was tested on human Cereblon WT GST-tagged protein (Homo sapiens); the reported IC50 is < 0.5 µM

Item CC1(C)CCC(CN2CCC(Sc3ccc4c(c3)CN(C3CCC(=O)NC3=O)C4=O)CC2)=C(c2ccc(Cl)cc2)C1 (stereo not shown) was tested on human Cereblon WT GST-tagged protein (Homo sapiens); the reported IC50 is 0.5 to 1 µM

Item CC1(C)CCC(C(=O)N2CCC(Sc3ccc4c(c3)CN(C3CCC(=O)NC3=O)C4=O)C2)=C(c2ccc(Cl)cc2)C1 (stereo not shown) was tested on human Cereblon WT GST-tagged protein (Homo sapiens); the reported IC50 is 0.5 to 1 µM

Item CC1(C)CCC(CN2CCCC(Sc3ccc4c(c3)CN(C3CCC(=O)NC3=O)C4=O)CC2)=C(c2ccc(Cl)cc2)C1 (stereo not shown) was tested on human Cereblon WT GST-tagged protein (Homo sapiens); the reported IC50 is 1 to 1.9 µM

---

molecular target: human Cereblon WT GST-tagged protein (Homo sapiens)
Some molecules, each annotated with its measured IC50.

Recorded results for 3 molecules are shown here.
O=C1CCC(N2Cc3cc(SC4CCN(C(=O)c5ccccc5-c5ccc(Cl)cc5)CC4)ccc3C2=O)C(=O)N1 (stereo not shown) [GT-06182] : < 500 nM
O=C1CCC(N2Cc3cc(SC4CCCNCC4)ccc3C2=O)C(=O)N1 (stereo not shown) [GT-06995] : 1000 to 1900 nM
O=C1CCC(N2Cc3cc(SC4CN(Cc5ccc(-c6ccncc6)nc5)C4)ccc3C2=O)C(=O)N1 (stereo not shown) [GT-06808] : 500 to 1000 nM

Item CC1(C)CCC(CN2CC(Oc3ccc4c(c3)CN(C3CCC(=O)NC3=O)C4=O)C2)=C(c2ccc(Cl)cc2)C1 (stereo not shown) [GT-03369] was tested on human Cereblon WT GST-tagged protein (Homo sapiens); the reported IC50 is 500 to 1000 nM

Item O=C1CCC(N2Cc3cc(OC4CN(Cc5cnc(-c6ccccc6)cn5)C4)ccc3C2=O)C(=O)N1 (stereo not shown) [GT-06353] was tested on human Cereblon WT GST-tagged protein (Homo sapiens); the reported IC50 is 500 to 1000 nM

Item O=C1CCC(N2Cc3cc(SC4C[C@@H]5CN(C(=O)c6ccccc6-c6ccc(Cl)cc6)C[C@H]5C4)ccc3C2=O)C(=O)N1 (stereo partly shown) [GT-07023] was tested on human Cereblon WT GST-tagged protein (Homo sapiens); the reported IC50 is < 500 nM

Item CC1(C)CCC(C(=O)N2CCC(Oc3ccc4c(c3)CN(C3CCC(=O)NC3=O)C4=O)CC2)=C(c2ccc(Cl)cc2)C1 (stereo not shown) [GT-06192] was tested on human Cereblon WT GST-tagged protein (Homo sapiens); the reported IC50 is 500 to 1000 nM

---

Some compounds, each annotated with its measured IC50.
tested on: JEKO-1; assay: Half inhibitory concentration (IC50) against tumor cells, Cell Counting Kit-8; assay type: cell-based; conditions: Homo sapiens, CCK-8, 96 h treatment, read-out: inhibitory activity (IC50, nM) against tumor cells proliferation

Recorded results for 2 compounds are shown here.
O=C1CCC(N2Cc3cc(SC4CN(Cc5ccccc5-c5ccc(Cl)cc5)C4)ccc3C2=O)C(=O)N1 (stereo not drawn) : 100 to 500 nM
Nc1cccc2c1C(=O)N(C1CCC(=O)NC1=O)C2=O (stereo not drawn) [pomalidomide, reference compound] : > 10000 nM

API: the following record is the query input.
Item O=C1CCC(N2Cc3cc(OC4CN(Cc5ccccc5-c5ccc(Cl)cc5)C4)ccc3C2=O)C(=O)N1 (stereo not drawn) was tested on JEKO-1; the reported IC50 is 100 to 500 nM

---

Some molecules, each annotated with its measured IC50.
tested on: MV-4-11; assay: Half inhibitory concentration (IC50) against tumor cells, Cell Counting Kit-8; assay type: cell-based; conditions: Homo sapiens, MV4-11, CCK-8, 96 h treatment, read-out: inhibitory activity (IC50, nM) against tumor cells proliferation

Nc1cccc2c1C(=O)N(C1CCC(=O)NC1=O)C2=O (stereo not drawn) [pomalidomide, reference compound] : > 10000 nM
CC1(C)CCC(CN2CCC3(CCC(Sc4ccc5c(c4)CN(C4CCC(=O)NC4=O)C5=O)CC3)CC2)=C(c2ccc(Cl)cc2)C1 (stereo not drawn) [GT-06874] : 100 to 500 nM
O=C1CCC(N2Cc3cc(SC4CN(C(c5ccccc5F)c5ccccc5F)C4)ccc3C2=O)C(=O)N1 (stereo not drawn) [GT-06758] : 50 to 100 nM
O=C1CCC(N2Cc3cc(OC4CC5CN(C(c6ccccc6)c6ccccc6)CC5C4)ccc3C2=O)C(=O)N1 (stereo not drawn) [GT-06955] : 50 to 100 nM
CC1(C)CCC(CN2CCC3(CC2)CC(Sc2ccc4c(c2)CN(C2CCC(=O)NC2=O)C4=O)C3)=C(c2ccc(Cl)cc2)C1 (stereo not drawn) [GT-06873] : 10 to 50 nM

Item CC1(C)CCC(C(=O)N2CCC3(CCC(Sc4ccc5c(c4)CN(C4CCC(=O)NC4=O)C5=O)CC3)CC2)=C(c2ccc(Cl)cc2)C1 (stereo not drawn) [GT-07016] was tested on MV-4-11; the reported IC50 is 500 to 1000 nM

Reference source: patent US20260207578A1
